assaySystem: Voltage-gated potassium channel subunit beta-2 (Rattus norvegicus)
experimentNotes: KvBeta enzyme negative modulators, primary screen, biochemical, NADPH fluorescence (AID 622);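 also: slope of raw intensity against log time taken from 70 to 1610 s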
conditionInfo: recombinant KvBeta, 4-cyanobenzaldehyde reduction, at 10 µM
Activity calls are given as the source filed them.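 The calls were made as follows: active = fluorescence slope higher than the sample average by over 3 SD (cut at about -0.22 in these data, passing the limit was not always enough); inactive = the rest.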
Entry note: the call must match one of active, inactive

Worked cases, answers included:
| molecule | assignedCategory |
| --- | --- |
| Cc1ccc(SCc2[nH]nc3c2C(c2ccc(C)o2)C(C#N)=C(N)O3)cc1 (centres undefined) | inactive |
| O=C(NCc1ccccc1)c1ccc(=O)[nH]n1 | inactive |
| Cc1ccccc1OCC(O)Cn1c(N2CCN(c3ccccc3)CC2)nc2c1c(=O)[nH]c(=O)n2C (centres undefined) | inactive |
| O=C1OC(Nc2ccc(Br)cn2)c2ccccc21 (centres undefined) | inactive |
| Cc1ccc(N2C(=O)[C@@H]3[C@H](C2=O)C2CCCN2[C@@H]3C(=O)c2ccccc2)cc1 (some centres undefined) | inactive |

## Input Hello, I am checking results. What call was entered for CCN(CC)CCCn1c(C)cc2c(c1=O)C(c1ccc(OC)c(OC)c1OC)C(C#N)=C(N)O2 (centres undefined) ?
## Output inactive

## Input // outcome(item) with item = COc1cc(C2C3C(=O)N(c4ccc(F)cc4)C(=O)C3ON2c2ccccc2)ccc1O (centres undefined)
## Output inactive

## Input What did this assay record as the result for `Cc1cc(=O)[nH]c(SCC(=O)c2ccccc2)c1C#N` ?
## Output inactive

## Input For `CCOC(=O)N1CCN(C(=O)c2cn(CC)c3cc(N4CCN(C)CC4)c(F)cc3c2=O)CC1` , which call appears in the assay record?
## Output inactive

## Input Please share the test call associated with CCOc1ccc(/C(O)=C2/C(=O)C(=O)N(CCN(CC)CC)C2c2ccco2)cc1 (centres undefined) .
## Output inactive

## Input Write down the call the test reported for this molecule. Item: O=C(O)CC(NCc1ccco1)C(=O)OCC1CCCO1 (centres undefined)
## Output inactive
